Listing of entries alongside the reported BTK_I_binding pIC50.
- Target of assay: unphosphorylated-BTK kinase domain (UP-BTK), GST-tagged human BTK (389-659aa) (Homo sapiens (Human), UniProt Q06187)
- Sequence (Q06187 389-659): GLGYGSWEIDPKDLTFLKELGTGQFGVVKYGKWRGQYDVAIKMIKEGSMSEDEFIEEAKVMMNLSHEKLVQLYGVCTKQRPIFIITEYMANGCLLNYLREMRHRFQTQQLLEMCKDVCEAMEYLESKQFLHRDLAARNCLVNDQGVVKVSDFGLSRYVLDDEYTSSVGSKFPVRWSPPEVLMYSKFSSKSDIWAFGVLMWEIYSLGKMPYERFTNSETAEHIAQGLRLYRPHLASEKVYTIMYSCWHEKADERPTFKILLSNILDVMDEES
- Method: BTK kinase Lanthascreen binding assay
- Measurement context: unphosphorylated-BTK kinase domain, 50 nM Tracer 236, 60 minutes; pIC50 = negative log of the IC50 in molar
Reply: number alone, nothing else.

Kindly indicate its recorded BTK_I_binding pIC50. Item: C=CC(=O)N1C[C@H](F)C[C@@H](NC(=O)c2sc3nccc4c3c2NC(=O)N4c2ccc(Oc3ccccc3)cc2C)C1 (relative stereo) [Example 499] 7.9

Entry CO[C@H]1C[C@@H](NC(=O)c2sc3nccc4c3c2NC(=O)N4c2ccc(Oc3ccccc3)cc2C)CN(C)C1 [Example 312] needs its BTK_I_binding pIC50 filled in; supply it. 5.9

Give BTK_I_binding pIC50 for Cc1cc(Oc2ccccc2)ccc1N1C(=O)Nc2c(C(=O)N[C@@H]3CCCN(C(=O)/C=C/CN4CCOCC4)C3)sc3nccc1c23 [Example 403] 6.4
